- Test system: UACC-257 melanoma
- assay.details: NCI-60 one-dose screen, 48 h
- applied.conditions: 10 µM unless noted
This is part of a sample that, as a whole, favours compounds with a hit. Of some 83,000 tested, about 20% had one in any assay. Active and inactive are the calls of the source. The calls were made as follows: active = growth percent below 10; inactive = the rest.
Classes used: 1 for active, 0 for inactive

compound	class.label
c1ccc(Cn2cnc3ccc(-c4nc(-c5ccc6c(c5)ncn6C5CCCCC5)cn5ccnc45)cc32)cc1	1
CCCCCN1C=C/C(=C\C(=O)N2CCCc3ccccc32)c2ccccc21	0
O=Cc1cc2ccccc2nc1Oc1ccc(C(F)(F)F)cc1	0
O=[N+]([O-])CC(c1ccccc1F)c1c[nH]c2ccccc12 (configuration not stated)	0
COc1cc2nc(-c3ccc(Cl)cc3)cc(OCCCN3CCCC3)c2cc1OC	0
CCCCCN1C=C/C(=C\C(=O)N(C)c2ccc(Oc3ccccc3)cc2)c2ccccc21	0
COc1ccc(C(=O)c2cc(C)c(OC)c(C)c2)c(OC)c1NC(C)=O	0
